Provenance of the data: ChEMBL document CHEMBL4364306

assayedTarget: Cannabinoid receptor 2 (Homo sapiens, UniProt P34972)
Sequence (P34972 whole entry): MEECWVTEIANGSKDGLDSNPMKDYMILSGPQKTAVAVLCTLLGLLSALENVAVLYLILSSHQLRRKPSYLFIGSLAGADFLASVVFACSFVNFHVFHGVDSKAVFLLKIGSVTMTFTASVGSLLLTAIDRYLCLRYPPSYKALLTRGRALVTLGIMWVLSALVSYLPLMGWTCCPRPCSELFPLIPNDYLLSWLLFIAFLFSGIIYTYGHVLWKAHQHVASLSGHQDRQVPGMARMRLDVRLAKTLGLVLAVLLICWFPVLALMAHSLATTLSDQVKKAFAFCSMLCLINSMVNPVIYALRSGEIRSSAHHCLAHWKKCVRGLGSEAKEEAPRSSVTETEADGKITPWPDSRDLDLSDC
experimentSummary: Agonist activity at N-terminal Flag epitope tagged CB2 (unknown origin) expressed in HTLA cells assessed as increase of beta-arrestin recruitment by Tango assay
Type: cell-based
pEC50: −log10 of the molar value.
// reported pEC50 for each item listed

Cc1nc(-c2ccccc2)sc1C(=O)NC1CCCc2ccccc21 (stereo not given) = < 4.52
O=C(Nc1nc2ccccc2s1)C12CC3CC(CC(C3)C1)C2 = < 4.52
Cc1nc(C(C)(C)C)sc1C(=O)NC12CC3CC(CC(C3)C1)C2 = 5.40
Cc1nc(-c2ccccc2)sc1C(=O)NCC1CCCCC1 = < 4.52

Give recorded pEC50. Cc1nc(-c2ccccc2)sc1C(=O)NCc1ccccc1Cl
< 4.52

# return recorded pEC50 for input Cc1nc(-c2ccccc2)sc1C(=O)NCc1ccc(F)cc1
< 4.52
